B1: MEF2-activating motif and SAP domain-containing transcriptional regulator, residues 170 to 204; numbered along this chain, Q6ZN01 (parent)
chain: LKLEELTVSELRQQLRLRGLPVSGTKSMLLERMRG

variants of: B1; assay: abundance fitness (aPCA) (normalised: wild type 0, dead -1); higher = more abundant; growth selection in yeast, the domain comes from the species named; settings: Homo sapiens
Would you kindly list abundance fitness for each of these variants?

[in] Provide only the value of recorded abundance fitness for L30W
[out] -0.456

[in] Using the record for V8P , state its measured abundance fitness.
[out] -0.39

[in] Please supply the value of reported abundance fitness for the item R16K
[out] 0.284

[in] Fill in reported abundance fitness for this entry: K26D
[out] -0.467

[in] Return abundance fitness for the following variant: E31L
[out] -0.503

[in] Respond only with abundance fitness recorded for L15S
[out] -0.215

[in] Answer with the recorded abundance fitness for the variant listed here: L15N
[out] -0.308

[in] # return recorded abundance fitness for entry E4M
[out] -0.41

[in] Specify measured abundance fitness for Q14R .
[out] -0.174

[in] Please list abundance fitness recorded for the variant S9W
[out] -0.142

[in] Item L11F : provide abundance fitness
[out] -1.08
